target: B. cereus PC-PLC (phosphatidylcholine-specific phospholipase C) (Bacillus cereus); construct: purchased Invitrogen; assay: Inhibition of phosphatidylcholine-specific phospholipase C (Amplex Red PC-PLC assay kit); type: biochemical; conditions: 30 min at 37° C., 0.2 U/mL PC-PLC solution, triplicate
Each entry below lists one item and its recorded IC50 value.
API: value field is a number in µM; no unit string.

Just so you know, measured IC50 for S=C(S)OC1CC2CC1C1CCCC21 (single isomer, unassigned; (-)) [(−)-Enantiomer 1A] came out at 15.9

Just so you know, measured IC50 for S=C(S)OC1CC2CC1C1CCCC21 (single isomer, unassigned; (+)) [(+)-Enantiomer 1A] came out at 60.8

* * *

biological target: B. cereus PC-PLC (phosphatidylcholine-specific phospholipase C) (Bacillus cereus, UniProt P09598); construct: purchased Invitrogen; experiment: Inhibition of phosphatidylcholine-specific phospholipase C (Amplex Red PC-PLC assay kit); type: biochemical
Sequence (P09598 39-283 limits assumed): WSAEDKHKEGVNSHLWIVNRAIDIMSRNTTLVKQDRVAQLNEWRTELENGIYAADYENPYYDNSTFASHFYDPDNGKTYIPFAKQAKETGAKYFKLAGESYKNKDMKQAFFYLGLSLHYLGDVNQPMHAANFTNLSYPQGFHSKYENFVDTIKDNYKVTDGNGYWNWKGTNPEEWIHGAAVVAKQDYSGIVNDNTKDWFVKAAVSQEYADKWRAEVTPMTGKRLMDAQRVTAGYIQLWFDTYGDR
endpoint_label: pIC50
Note on pIC50: it is the negative log10 of concentration, concentration in mol/L.

Per the records, this compound ( S=C(S)OC1CC2CC1C1CCCC21 (stereo not shown) [Compound D609, tricyclodecan-9-yl-xanthogenate] ) has pIC50 equal to 4.05

* * *

system: Calu-6 cells; assay: Cytotoxicity assay in Calu-6 cells (crystal violet); assay type: cell-based; details: 48 hr
endpoint_label: LD50 (µg/mL)
The response must be a number in µg/mL with no trailing unit.

Here are 3 compounds together with their reported answers.
compound: S=C(S)OC1CC2CC1C1CCCC21 (stereo not shown) [Compound D609, tricyclodecan-9-yl-xanthogenate]
LD50 (µg/mL): 105.18

compound: S=C(S)O[C@@H]1C[C@@H]2C[C@H]1[C@H]1CCC[C@@H]21 (racemic) [Racemic 1A, racemic O-exo/C-exo xanthic acid 1A, reference compound]
LD50 (µg/mL): 96.93

compound: S=C(S)OC1CC2CC1C1CCCC21 (single isomer, unassigned; enantiomer 1a) [(+)-Enantiomer 1A]
LD50 (µg/mL): 81.29

Next:
Summary line: S=C(S)OC1CC2CC1C1CCCC21 (single isomer, unassigned; enantiomer 1a) [(−)-Enantiomer 1A] , Calu-6 cells, reported LD50 = 94.32

* * *

assay: Cytotoxicity assay in Calu-6 cells; assay type: cell-based; conditions: human, 37° C., read-out: LD50
endpoint_label: CC50 at 48 h (µg/mL)
Please give a number only; it is taken to be in µg/mL.

CC50 at 48 h recorded for this compound, S=C(S)OC1CC2CC1C1CCCC21 (stereo not shown) [Compound D609, tricyclodecan-9-yl-xanthogenate] , is 105

meta.source: patent US20100240746A1
